// provenance: ChEMBL document CHEMBL1127457

Biological target: Renin (Rattus norvegicus, UniProt P08424)
Sequence (P08424 whole entry): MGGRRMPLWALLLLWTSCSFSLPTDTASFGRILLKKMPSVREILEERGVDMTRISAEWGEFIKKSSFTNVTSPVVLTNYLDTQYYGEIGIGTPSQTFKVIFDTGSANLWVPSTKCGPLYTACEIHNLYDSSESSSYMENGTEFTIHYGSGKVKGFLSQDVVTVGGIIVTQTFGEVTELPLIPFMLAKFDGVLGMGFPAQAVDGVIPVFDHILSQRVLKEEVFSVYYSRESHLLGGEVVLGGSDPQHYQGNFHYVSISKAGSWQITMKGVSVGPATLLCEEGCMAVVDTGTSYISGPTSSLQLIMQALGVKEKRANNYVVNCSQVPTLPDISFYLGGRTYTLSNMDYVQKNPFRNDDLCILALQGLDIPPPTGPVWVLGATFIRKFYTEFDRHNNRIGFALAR
Test: Tested in vitro for its ability to inhibit the rat plasma renin
Assay type: cell-free
Give pIC50 for every item shown.
pIC50 field: float, defined as -log10 of concentration (mol/L).

Entry CCCC[C@H](N[C@@H](Cc1ccccc1)C(=O)N1CCC(OCOC)CC1)C(=O)N[C@@H](CC1CCCCC1)[C@@H](O)C[C@H](C(=O)NCCN1CCOCC1)C(C)C under Renin (Rattus norvegicus, UniProt P08424) had pIC50 of 5.42

Entry CCCC[C@H](N[C@@H](Cc1ccccc1)C(=O)N1CCC(OCOC)CC1)C(=O)N[C@@H](CC1CCCCC1)[C@@H](O)C[C@H](C(=O)NCC(C)(C)N1CCOCC1)C(C)C under Renin (Rattus norvegicus, UniProt P08424) had pIC50 of 5.68

Entry CCCC[C@H](N[C@@H](Cc1ccccc1)C(=O)N1CCC(OCOC)CC1)C(=O)N[C@@H](CC1CCCCC1)[C@@H](O)C[C@H](C(=O)NCCCn1ccnc1)C(C)C under Renin (Rattus norvegicus, UniProt P08424) had pIC50 of 5.14

Entry CCCC[C@H](N[C@@H](Cc1ccccc1)C(=O)N1CCC(OCOC)CC1)C(=O)N[C@@H](CC1CCCCC1)[C@@H](O)C[C@H](C(=O)NCc1ccncc1)C(C)C under Renin (Rattus norvegicus, UniProt P08424) had pIC50 of 5.00

Entry CCCC[C@H](N[C@@H](Cc1ccccc1)C(=O)N1CCC(OCOC)CC1)C(=O)N[C@@H](CC1CCCCC1)[C@@H](O)C[C@H](C(=O)NCCc1ccccn1)C(C)C under Renin (Rattus norvegicus, UniProt P08424) had pIC50 of 5.15
